Data provenance is PubChem BioAssay (NCI).

- Tested on: NCI-H226 lung
- Protocol Notes: NCI tumour cell line growth inhibition, 48 h
Value Kind: TGI

Recorded TGI, per entry:
C[C@H]1O[C@@H](O[C@H]2[C@@H](O)C[C@H](O[C@H]3[C@@H](O)C[C@H](O[C@H]4CC[C@]5(C)C6C[C@@H](O)[C@]7(C)[C@@H](C8=CC(=O)OC8)CC[C@]7(O)C6CC[C@@H]5C4)O[C@@H]3C)O[C@@H]2C)C[C@H](O)[C@@H]1O (some centres undefined)	0.191 µM
C[C@@]12CCC[C@@](C)(C(=O)O)C1CC[C@]13C=C(CO)[C@](O)(CCC12)C3 (some centres undefined)	> 100 µM
COc1cc(/C=C2/C[C@H]3[C@@H]4CCC5=CC(=O)CC[C@]5(C)[C@H]4CC[C@]3(C)NC2=O)cc(OC)c1OC	> 100 µM
Nc1nn(C(=O)Nc2ccc(Cc3ccccc3)cc2)c2ccc(Cl)cc12	> 81.7 µM
CCOC(=O)c1c(NS(=O)(=O)c2ccc(Br)cc2)sc2c1CCCC2	9.91 µM
NC1=NN(c2ccccc2)C(=O)C1C(=O)C(=O)NC1C2CC3CC(C2)CC1C3 (centres undefined)	> 100 µM
C/C(=C\CNc1ncnc2nc(Cl)[nH]c12)CO	> 100 µM
C=CCOC1=C2CC[C@H](O)[C@@]2(C)CCC1=O	> 100 µM

*Q* For the record O=S1(=O)COc2ccccc2-c2ncncc21 , what value of TGI is listed for NCI-H226 lung?
*A* > 100 µM

*Q* Same read-out for N#CC(NC12CC3CC(CC(C3)C1)C2)c1ccccc1 (centres undefined) ?
*A* > 100 µM

*Q* Subsequent entry: C/C(=C/CNc1ncnc2c1ncn2CCC(=O)O)CO
*A* > 100 µM

*Q* Next: [Ce+3].[Cl-].[O-]/N=C(\c1ccccc1)c1ccccn1.[O-]/N=C(\c1ccccc1)c1ccccn1.[O-]/N=C(\c1ccccc1)c1ccccn1
*A* 72 µM

*Q* Thanks! And CCOC(=O)CC/C(C)=N\n1c(Cc2ccc(Cl)cc2)n[nH]c1=O ?
*A* > 100 µM

*Q* Input COC(=O)C1=C2C3=C(C(=O)c4ccccc4C3=O)N(Cc3ccccc3)C2(OC(C)=O)C=CC1=O (centres undefined)
*A* 32.6 µM

*Q* Same thing, different molecule: CC(C)(C)c1ccc(O)c(Br)c1
*A* > 100 µM

*Q* What about this molecule? O=C1C(=O)c2ccccc2C=C1[N+](=O)[O-]
*A* > 100 µM

*Q* Next record, please: S=c1cn[nH]c2ccc(Br)cc12
*A* > 100 µM

*Q* Check COC(=O)/C=C1/OC(c2ccc(Br)cc2)=C(Br)C1=O too.
*A* 34.7 µM

*Q* Subsequent entry: COc1c(Nc2ncc(Cl)c(N[C@@H]3[C@H]4C=CC(C4)[C@@H]3C(N)=O)n2)ccc2c1CC[C@@H](N1CCOCC1)CC2
*A* 30.2 µM

---

TGI values, listed per item
- Test system: HCT-116 colon
- Protocol Notes: NCI tumour cell line growth inhibition, 48 h

Some solved cases for reference:
Oc1c(Cl)cc(C(c2cc(Cl)c(O)c(Cl)c2)C(c2cc(Cl)c(O)c(Cl)c2)c2cc(Cl)c(O)c(Cl)c2)cc1Cl	10.8 µM
COC(=N)C(C)C	> 100 µM
CCC1(O)C(=O)OCc2c1cc1n(c2=O)Cc2c-1nc1ccccc1c2OC (stereo unspecified)	1.21 µM
CC(C)(C)C1CCC2c3c([nH]c4ccccc34)C3C(=O)N(c4cccc(Cl)c4)C(=O)C3C2C1 (stereo unspecified)	19.3 µM
O=S1(=O)COc2ccccc2-c2ncncc21	> 100 µM
Nn1c(-c2ccccc2Nc2ccccc2-c2n[nH]c(=S)n2N)n[nH]c1=S	> 50 µM
NCCCCN	> 100 µM
CSc1c(C#N)c(O)n(-c2ccc(Cl)cc2)c(=O)c1C#N	> 100 µM
C=CC1(c2ccc(Cl)c(Cl)c2)OCCO1	> 100 µM
COC(=O)C(CCC1(C)OCCO1)C(C)=O (stereo unspecified)	> 100 µM

Turning to the following compound.
*Q* Name the recorded TGI for CC(C)c1ccc2c(c1)[C@@]1(C)CC[C@H](C)C(C)(C)C1CC2 (stereo partly specified) .
*A* 34.9 µM

---

- Test system: MDA-MB-435
Pick from 1 = active, -1 = inactive when you respond.

CC(C)[C@@H]1NC(=O)[C@]2(C)CSC(=N2)c2csc(n2)CNC(=O)C[C@@H](/C=C/CCS)OC1=O	1
Cc1ccccc1NC(=O)N/C(N)=N/c1nc2ccccc2s1	1
Cn1c(=O)c(Sc2ccccc2F)cc2cnc(NC3CCOCC3)nc21	-1

*Q* Outcome logged for CCCCC(SC(=S)N(CC)CC)C(=O)Nc1nc(CC(=O)OCC)cs1 (stereo not given) in this assay:
*A* -1

*Q* Try this molecule too: NC(=O)c1cccc(N)c1
*A* -1

*Q* Now this one: CCS(=O)(=O)c1ccc(OC)c(Nc2ncc(-c3cccc(-c4ccccc4F)c3)o2)c1
*A* -1

*Q* One more molecule: COC(=O)C1=C2C3=C(C(=O)c4ccccc4C3=O)N(Cc3ccccc3)C2(OC(C)=O)C=CC1=O (stereo not given)
*A* -1

*Q* Same thing, different molecule: Nc1ccccc1C#Cc1ccccc1C#Cc1ccccc1N
*A* -1

*Q* Try this molecule next: O=C(c1ccc(F)c(F)c1Nc1ccc(I)cc1F)N1CC(O)([C@H]2CCCCN2)C1
*A* 1

*Q* Moving on to NC(=O)c1ncn(C2OC(CO)C(O)C2O)n1 (stereo not given)
*A* -1

---

- Tested on: DLD-1 colon
- Protocol Notes: NCI tumour cell line growth inhibition, 48 h
Value Kind: TGI

Cc1cc(=O)cc2sc3cc(Cl)ccc3nc1-2	> 100 µM

*Q* Given the entry NC1=NN(c2ccccc2)C(=O)C1C(=O)C(=O)NC1C2CC3CC(C2)CC1C3 (stereo not given) , report its measured TGI.
*A* > 100 µM

*Q* Another compound: CCN(CC)CC(O)CNc1ccc(NCC(O)CCl)c2c1C(=O)c1ccccc1C2=O (stereo not given)
*A* 38.9 µM

*Q* Ok, now CC(=O)N(/N=C\c1ccc([N+](=O)[O-])cc1)c1ccccc1
*A* > 100 µM

*Q* Thanks! And [Ce+3].[Cl-].[O-]/N=C(\c1ccccc1)c1ccccn1.[O-]/N=C(\c1ccccc1)c1ccccn1.[O-]/N=C(\c1ccccc1)c1ccccn1 ?
*A* > 100 µM

---

Catalogue of GI50 readings, one per entry.
- System: KM12 colon
- Protocol Notes: NCI tumour cell line growth inhibition, 48 h

CC(C)[C@@H]1NC(=O)[C@]2(C)CSC(=N2)c2csc(n2)CNC(=O)C[C@@H](/C=C/CCS)OC1=O	52.6 nM
O=C1OCC2=C1C(c1ccccc1)c1cc3c(cc1N2CCO)CCC3 (stereo not given)	79.3 nM
Clc1ccc(-c2nc(-c3c[nH]c4ncccc34)cs2)cc1	> 100000 nM
NC(=O)c1cccc(N)c1	> 100000 nM
O=[N+]([O-])c1ccc(Oc2cccnc2)c([N+](=O)[O-])c1	2690 nM

Query compound follows.
*Q* Field request: GI50 | item: COc1ccc(Nc2nc(NCc3ccccc3)c3ccccc3n2)cc1
*A* 3810 nM

---

- Tested on: MDA-MB-231 breast
- Protocol Notes: NCI tumour cell line growth inhibition, 48 h
Would you please tag the item criterion met when its TGI is 8 µM or above, and criterion not met when it is below?

Example cases with answers are listed next.
C/C(=N/NC(=S)N1CCCCCC1)c1ccccc1O	criterion met
CCOC(=O)CC/C(C)=N\n1c(Cc2ccc(Cl)cc2)n[nH]c1=O	criterion met
CC1=C(C(=O)OCCc2ccc([N+](=O)[O-])cc2)C(c2ccccc2C(F)(F)F)C(C(=O)OC(C)C)=C(C)N1 (stereo unspecified)	criterion met
COc1ccc(C2=C(Br)C(=O)OC2)cc1Cl	criterion met
COc1ccc(S(=O)(=O)Nc2cc(/C=C\c3cc(OC)c(OC)c(OC)c3)cc(OC)c2OC)cc1OC	criterion met

*Q* Evaluate Fc1ccc(C2(CCCN3CCc4[nH]c5cc(F)ccc5c4C3)OCCO2)cc1 : TGI at minimum 8 µM?
*A* criterion met

*Q* Can you check COC(=O)c1c2c(c[n+]([O-])c1C)C(=O)C(NCc1ccccc1)=CC2=O next?
*A* criterion not met

*Q* Here is the next molecule: CCOC(=O)N/N=C/C1=NN(C(=O)OCC)S(=O)C1C (stereo unspecified)
*A* criterion met

*Q* Query O=[N+]([O-])c1nccn1CCCN=c1c2ccccc2n(O)c2ccccc12 next
*A* criterion met

*Q* // query: O=C(CSc1nc2ccc(Cl)cc2c(=O)n1-c1ccccc1)N=Nc1c(O)[nH]c2ccc(F)cc12
*A* criterion not met

*Q* Field entry: C[C@@]12C[C@@H](c3ccccc3O1)N1CCSC1=N2
*A* criterion met

*Q* Here is the next molecule: CC(C)[C@@H]1NC(=O)[C@]2(C)CSC(=N2)c2csc(n2)CNC(=O)C[C@@H](/C=C/CCS)OC1=O
*A* criterion met

*Q* Now try CSc1nc(C)cc(N(C)c2ccccc2)n1 .
*A* criterion met

*Q* Another molecule: O=[N+]([O-])c1ccccc1S(=O)(=O)c1ccccc1[N+](=O)[O-]
*A* criterion met

*Q* Proceed to Oc1c(Cl)cc(C(c2cc(Cl)c(O)c(Cl)c2)C(c2cc(Cl)c(O)c(Cl)c2)c2cc(Cl)c(O)c(Cl)c2)cc1Cl
*A* criterion met

*Q* Also O=Cc1ncc(-c2ccc(C(F)(F)F)cc2)c(NC2CCCCCC2)n1 ?
*A* criterion met

*Q* // next record CC(C)=C1C(=O)C[C@]2(C)C/C=C(\C)CC/C=C(\C)CC[C@@H]12
*A* criterion met

*Q* # iterate: Cc1cc(N2CCOCC2)nc(N(CCCNc2ccnc3cc(Cl)ccc23)Cc2ccc3c(c2)OCO3)n1
*A* criterion not met

*Q* Next entry: O=C(O)c1ccc([N+](=O)[O-])c(P(=O)(O)O)c1
*A* criterion met

*Q* Check Cn1c(=O)c2[nH]c(/N=N\n3ccc4ccccc43)nc2n(C)c1=O too.
*A* criterion met
